experiment: inhibitors of TNFa-induced NFkB p65 translocation, primary screen, imaging, HUVEC, MLSMR starter and 10KST1 sets (AID 438); conditions: HUVEC TNFa-induced p65 nuclear translocation; measured here: nuclei count (cytotoxicity indicator), at 2.08 µM;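 note: compound added about 3h40 before a 20 min TNFalpha stimulation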
Returns one of fulfilled or not fulfilled; fulfilled when cell count is >= 500.

[in] Textbook exercise: given the entry `Cc1cc(C)n(-c2ccc(N3CCOCC3)nn2)n1` , state whether its cell count is greater than or equal to 500.
[out] fulfilled

[in] Textbook exercise: given the entry Cc1ccc(N(C(=O)C2CCC(=O)N2)C2(C(=O)NC3CCCCC3)CCCCC2)cc1 (stereo unspecified) , state whether its cell count is greater than or equal to 500.
[out] fulfilled

[in] Textbook exercise: given the entry CC1=C(C(=O)N2CCOCC2)C(c2ccsc2)C2=C(CCCC2=O)N1 (stereo unspecified) , state whether its cell count is greater than or equal to 500.
[out] not fulfilled

[in] Textbook exercise: given the entry `CCCc1cc(N2CCCC2)n2nc(C)c(-c3ccccc3)c2n1` , state whether its cell count is greater than or equal to 500.
[out] fulfilled

[in] Textbook exercise: given the entry COC(=O)c1ccccc1NC(=O)C12CCC(C)(C(=O)O1)C2(C)C (stereo unspecified) , state whether its cell count is greater than or equal to 500.
[out] not fulfilled

[in] Textbook exercise: given the entry `Cc1cc(C)n2nc(C(=O)NCc3ccco3)nc2n1` , state whether its cell count is greater than or equal to 500.
[out] not fulfilled

[in] Textbook exercise: given the entry `CS(=O)(=O)N(CC(=O)Nc1cccc(F)c1)Cc1ccccc1` , state whether its cell count is greater than or equal to 500.
[out] not fulfilled

[in] Textbook exercise: given the entry `O=C(c1cccs1)N(Cc1ccco1)Cc1cc2ccccc2[nH]c1=O` , state whether its cell count is greater than or equal to 500.
[out] not fulfilled

[in] Textbook exercise: given the entry `O=C(CCNC(=O)Cn1ccc2ccccc2c1=O)NCCN1CCc2ccccc2C1` , state whether its cell count is greater than or equal to 500.
[out] not fulfilled

[in] Textbook exercise: given the entry `COC(=O)c1nc(N)sc1-c1ccccc1` , state whether its cell count is greater than or equal to 500.
[out] fulfilled

Each recorded value in this set is attributed to PubChem BioAssay.
